ASSAY SYSTEM: Jak2 (UniProt O60674)
Sequence (O60674 whole entry, looked up): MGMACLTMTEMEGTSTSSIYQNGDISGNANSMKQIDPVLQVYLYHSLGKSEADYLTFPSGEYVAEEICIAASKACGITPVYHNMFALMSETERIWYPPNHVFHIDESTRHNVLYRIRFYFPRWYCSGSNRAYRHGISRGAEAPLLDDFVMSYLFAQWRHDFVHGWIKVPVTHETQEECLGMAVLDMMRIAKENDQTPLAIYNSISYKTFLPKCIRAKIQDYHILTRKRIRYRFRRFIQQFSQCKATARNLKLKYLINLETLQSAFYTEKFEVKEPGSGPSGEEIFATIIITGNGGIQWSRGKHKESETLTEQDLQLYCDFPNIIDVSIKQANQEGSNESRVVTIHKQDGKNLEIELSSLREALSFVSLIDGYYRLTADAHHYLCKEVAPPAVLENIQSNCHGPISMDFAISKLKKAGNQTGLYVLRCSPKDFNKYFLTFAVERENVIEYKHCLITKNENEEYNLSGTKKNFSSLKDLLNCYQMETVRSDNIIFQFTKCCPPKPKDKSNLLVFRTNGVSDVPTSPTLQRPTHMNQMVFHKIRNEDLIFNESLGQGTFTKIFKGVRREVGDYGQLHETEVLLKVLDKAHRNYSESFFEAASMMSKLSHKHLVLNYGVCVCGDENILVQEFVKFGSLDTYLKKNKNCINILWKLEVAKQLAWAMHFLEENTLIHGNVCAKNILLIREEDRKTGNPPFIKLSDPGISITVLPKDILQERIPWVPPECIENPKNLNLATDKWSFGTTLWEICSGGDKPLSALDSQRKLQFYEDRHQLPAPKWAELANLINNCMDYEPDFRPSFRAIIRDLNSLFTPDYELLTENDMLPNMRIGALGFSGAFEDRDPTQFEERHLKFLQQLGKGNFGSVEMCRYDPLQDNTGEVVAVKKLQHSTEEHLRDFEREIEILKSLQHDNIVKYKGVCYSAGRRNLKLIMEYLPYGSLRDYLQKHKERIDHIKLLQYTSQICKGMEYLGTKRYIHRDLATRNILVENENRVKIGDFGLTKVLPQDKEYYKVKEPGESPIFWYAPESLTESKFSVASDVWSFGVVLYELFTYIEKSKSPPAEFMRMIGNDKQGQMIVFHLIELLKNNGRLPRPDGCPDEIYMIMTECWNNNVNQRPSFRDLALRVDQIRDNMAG
ASSAY METHOD TEXT: phosphorylation enrichment, bacterial display (enrichment ratio); higher = better substrate or ligand; peptides without Tyr show the background;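 note: 11-residue human phosphosite peptides and single-mutation variants displayed on the E. coli surface, counted by deep sequencing, each peptide's frequency after selection divided by its frequency in the unselected input library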;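 note: frequency after pTyr selection over input frequency; kinase dosed for 20-30% of maximal phosphorylation in three min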
RECORDED ENDPOINT: phosphorylation enrichment

Consider the following illustrative entries.
{"columns": ["RESIDUE STRING", "phosphorylation enrichment"],
 "data": [
  ["ISDNACQYMLT [MYH7_Y162_Y162C]", 1.18],
  ["LIDGFYRLTED [JAK2_Y373_A377E_YF]", 1.11]
]}

Request: # return phosphorylation enrichment for YKGKNYKPLDL [RPL35_Y78_K77N] , test system: Jak2 (UniProt O60674)
Result: 0.59

Request: # return phosphorylation enrichment for KLADIYQAELR [GFAP_Y116_V115I] , test system: Jak2 (UniProt O60674)
Result: 0.813

Request: # return phosphorylation enrichment for MHLRQYKLLGG [GNAS_Y391_E392K] , test system: Jak2 (UniProt O60674)
Result: 0.548

Request: # return phosphorylation enrichment for DPLASYLDKVR [KRT10_Y160_R156P] , test system: Jak2 (UniProt O60674)
Result: 0.521

Request: # return phosphorylation enrichment for TTEHIYGDNFF [UBA7_Y524] , test system: Jak2 (UniProt O60674)
Result: 0.671

Request: # return phosphorylation enrichment for RMDGTYACSYT [FLNB_Y704] , test system: Jak2 (UniProt O60674)
Result: 0.92

Request: # return phosphorylation enrichment for FRAVKYLQMVG [AVPR2_Y117_C112Y_YF] , test system: Jak2 (UniProt O60674)
Result: 0.902

Request: # return phosphorylation enrichment for KLADMYGGGED [CDH1_Y876] , test system: Jak2 (UniProt O60674)
Result: 0.732

Request: # return phosphorylation enrichment for LEFAKYGSLRG [RET_Y809_V804L_YF] , test system: Jak2 (UniProt O60674)
Result: 0.593
